- procedureDetails: SK-BR-3 cell growth inhibitors, pilot screen, 24 h, human (AID 572);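 also: compound exposure lasted between 18 and 24 h rather than exactly 24 h; 100% = carrier-treated control wells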
- appliedConditions: SK-BR-3 viability, CellTiter-Glo luminescence, at 10 µM, active compounds read low
Documented viability across a set of molecules
# value in %; strip the unit string

Reported viability, molecule CC(C)(C)NC(=O)Nc1ccccc1C(N)=O : ____
110

Reported viability, molecule Cc1ccccc1-n1nnnc1SCC(=O)Nc1ccc(S(=O)(=O)N2CCCC2)cc1 : ____
70.5

Reported viability, molecule O=C(Cc1cccs1)Nc1nnc(CCc2ccccc2)s1 : ____
110

* * *

- procedureDetails: 384-well plate pilot, post-Golgi transport modulator project, inhibition of yeast transport mutant growth (AID 636)
- appliedConditions: absorbance 615 nm, about 18 h, active compounds read high
Calls of active or inactive are those of the source. Rule as the data show it: active = inhibition above about 31%; inactive = the rest.
measurementName: inhibition

Look over these answered cases.
> print(dat)
                                   compound  measurementname           reported
1                  Cn1nnnc1SCC(=O)NCc1ccco1       inhibition    1.2% (inactive)
2  COC(=O)c1c(N)n(-c2cc(OC)cc(OC)c2)c2nc3ccccc3nc12       inhibition  -6.35% (inactive)
3              CCOC(=O)c1sc2nc(C)cc(C)c2c1N       inhibition  -5.07% (inactive)
4               c1cc(CNc2ccc3c(c2)OCO3)ccn1       inhibition  -5.81% (inactive)

Reported inhibition, compound Cc1ccc(S(=O)(=O)NCCCCC(NC(=O)OC(C)(C)C)C(=O)O)cc1 (stereo unspecified) (tested in a mixture with another compound) : ____
-3.68% (inactive)

Reported inhibition, compound COCCn1c(SCC(=O)N(C(C)C)C(C)C)nnc1-c1cc2ccccc2cc1O : ____
-1.3% (inactive)

Reported inhibition, compound Cc1cnc(SCCc2ccncc2)nc1C : ____
-2.05% (inactive)

Reported inhibition, compound Cn1c(SC/C=C/c2ccccc2)nnc1-c1cnccn1 : ____
2.27% (inactive)

Reported inhibition, compound Nc1c(S(=O)(=O)c2cccs2)c2nc3ccccc3nc2n1CC1CCCO1 (stereo unspecified) : ____
-2.21% (inactive)

Reported inhibition, compound COc1cc2c(cc1OC)C(c1cccnc1)CC(=O)N2 (stereo unspecified) : ____
-1.73% (inactive)

Reported inhibition, compound CCCCn1nnc(NC(=O)Cc2ccc(Cl)cc2)n1 : ____
-3.9% (inactive)

* * *

- procedureDetails: SK-BR-3 cell growth inhibitors, pilot screen, 24 h, human (AID 572);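 also: compound exposure lasted between 18 and 24 h rather than exactly 24 h; 100% = carrier-treated control wells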
- appliedConditions: SK-BR-3 viability, CellTiter-Glo luminescence, at 10 µM, active compounds read low
Activity calls are given as the source filed them.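 How the source made its calls: active means viability at or below 10% of carrier control in both of two separate runs; inconclusive means viability at or below 10% in only one of the two runs; inactive means the rest.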
Documented viability across a set of molecules

Look over these answered cases.
> print(dat)
                                   molecule          reported
1  CCOc1cc(C2C(C(=O)c3ccccc3)=C(C(=O)OC)Nc3nnnn32)ccc1O (centres undefined)   113% (inactive)
2      Cc1c2c(nc3nc4ccccc4n13)CC(C)(C)CC2=O   130% (inactive)
3  COc1ccc(-n2c(=O)c3c4c(sc3n3c(C)nnc23)CCCC4)cc1  78.5% (inactive)

Reported viability, molecule Cc1cc(Oc2ccccc2)nc(-c2ccccc2)n1 : ____
100% (inactive)

Reported viability, molecule Cc1cc(C(=O)CN2C(=O)c3ccccc3C2=O)c(C)n1Cc1cccs1 : ____
122% (inactive)

Reported viability, molecule Cc1ccccc1N(CC(=O)NCC1CCCO1)C(=O)C1(C)CC(=O)N=C2C=CC=CN21 (centres undefined) : ____
96% (inactive)

Reported viability, molecule O=C(NCc1ccco1)c1csc(Nc2ccccc2Cl)n1 : ____
70.5% (inactive)

Reported viability, molecule CCS(=O)(=O)N1CCCC(c2nc(-c3cccc(OC)c3)no2)C1 (centres undefined) : ____
100% (inactive)

Reported viability, molecule CCOCC(=O)Nc1sc2c(c1C(=O)OCC)CCCC2 : ____
89% (inactive)

Reported viability, molecule CCN(CC)S(=O)(=O)c1ccc(Cl)c(C(=O)OC)c1 : ____
97% (inactive)

Reported viability, molecule CC(C)Cn1c(CN(Cc2ccccc2)Cc2ccccc2)nc2c1c(=O)n(C)c(=O)n2C : ____
85.5% (inactive)

Reported viability, molecule C=CCN1C(=O)C2(c3ccccc31)C1CCCC=C1C(C#N)=C(N)C2(C#N)C#N (centres undefined) : ____
81% (inactive)

Reported viability, molecule CC1=CC=CC2=NC(=O)CC(C)(C(=O)N(CC(=O)NC(C)C)C3CCCC3)N12 (centres undefined) : ____
101% (inactive)

These data points were gathered from PubChem BioAssay.
